target: recombinant human ALK enzyme (ALK WT) (Homo sapiens, UniProt Q9UM73); construct: purchased Carna Biosciences 08-518; assay: ALK WT cell free enzymatic assay (TR-FRET); format: biochemical; conditions: 10 point dose response; 1 μM ATP
Sequence (Q9UM73 1058-1620 limits assumed): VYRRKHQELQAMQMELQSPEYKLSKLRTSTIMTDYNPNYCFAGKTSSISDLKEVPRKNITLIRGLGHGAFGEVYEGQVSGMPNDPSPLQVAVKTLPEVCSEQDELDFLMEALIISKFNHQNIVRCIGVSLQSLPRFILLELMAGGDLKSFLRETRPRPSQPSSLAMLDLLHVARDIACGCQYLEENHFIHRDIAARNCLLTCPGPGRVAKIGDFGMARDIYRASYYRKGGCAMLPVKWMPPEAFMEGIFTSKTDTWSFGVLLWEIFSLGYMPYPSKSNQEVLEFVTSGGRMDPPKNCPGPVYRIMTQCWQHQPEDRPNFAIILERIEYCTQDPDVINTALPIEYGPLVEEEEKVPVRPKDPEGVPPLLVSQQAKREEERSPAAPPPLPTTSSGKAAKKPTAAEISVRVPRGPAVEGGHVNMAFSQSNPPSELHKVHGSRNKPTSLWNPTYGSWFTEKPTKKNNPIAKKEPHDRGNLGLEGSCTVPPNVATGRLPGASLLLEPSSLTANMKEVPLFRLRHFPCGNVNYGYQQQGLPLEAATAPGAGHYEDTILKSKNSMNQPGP
quantity kind: IC50

Prompt line: Quickly give me recorded IC50 for "Cc1nn(Cc2cccc(F)c2)c(C)c1-c1c[nH]c2ncc(-c3ccc(OCCN(C)C)c(NS(C)(=O)=O)c3)cc12"
Response line: 50 to 250 nM

Prompt line: Please report IC50 for the following compound: "CS(=O)(=O)Nc1cc(-c2cnc3[nH]cc(-c4cnn(CCc5ccccc5)c4)c3c2)ccc1F"
Response line: < 50 nM

Prompt line: Return IC50 (reported value) for this compound: "Fc1cccc(Cn2cc(-c3c[nH]c4ncc(-c5cnc(N6CCNCC6)c(F)c5)cc34)cn2)c1"
Response line: < 50 nM

Prompt line: Read off the recorded IC50 for "CS(=O)(=O)Nc1cccc(-c2cnc3[nH]cc(-c4cnn(Cc5cccc(C(F)(F)F)c5)c4)c3c2)c1"
Response line: > 250 nM

Source: patent US9353107B2
